What PBM binding z-score was measured for each of the following?
- Test system: PPARg:RXRa DBDmut IVT, anti-RXR (DBD mutation: RXRa K156A/R161A, NR concentration 270 nM, RXRa partner concentration 90 nM)
- protocol text: PBM binding z-score (relative to random genomic background probes); higher = stronger binding; sequences stand for … in GC…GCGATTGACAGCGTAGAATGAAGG

Item: "TTACCAAGGTGAGCTGAGGTAGTTGATCCAACTC" | PBM binding z-score: 0.816

Item: "GGAACGACGGCATTCGAGTTGATAGCATGGCGAT" | PBM binding z-score: -0.236

Item: "ACTCGGAGGACAATGGTCAGAGCTACGCCAGTGA" | PBM binding z-score: -0.21

Item: "CGTCCAAGATCAGAGAGGTCAGTGAATGCCGAGT" | PBM binding z-score: 0.179

Item: "TCTATTTGTTGATTAGGGCAACCGAAACAGCGGA" | PBM binding z-score: 1.93

Item: "TCATATAGGAAAAAGGTGAAAGTCGGTGTGGTAA" | PBM binding z-score: 2.92

meta.source: the supplement of paper PMC6555819
